# Test system: Staphylococcus aureus IID 803
# assayExplanation: Antibacterial activity in vivo (effect against systemic infection: ED50), S. aureus infected mice
# Set-up: species or system ddY male mice infected with Staphylococcus aureus
# measurementParameters: IID803, 168 h, S. aureus IID 803 systemic infection, mice, oral 1 h after infection, survival after one week, read-out: Antibacterial activity ED50 (50% effective dose)
measureName: ED50 (mg/kg)
Enter your answer as a number in mg/kg; do not include the unit.

Look up ED50: CCn1cc(C(=O)O)c(=O)c2cc(F)c(N3CCNCC3)c(F)c21.Cl [C, reference compound] 40.3

Look up ED50: Cl.O.O=C(O)c1cn(CCF)c2c(F)c(N3CCN(O)CC3)c(F)cc2c1=O [compound 4] 107

Look up ED50: Cl.O=C(O)c1cn(C2CC2)c2c(F)c(N3CCN(O)CC3)c(F)cc2c1=O [compound 5] 3.84

Look up ED50: CCn1cc(C(=O)O)c(=O)c2cc(F)c(N3CCN(O)CC3)c(F)c21.Cl [compound 3] 26.8

Look up ED50: Cl.O=C(O)c1cn(CCF)c2c(F)c(N3CCNCC3)c(F)cc2c1=O [D, reference compound] 123

Look up ED50: CCn1cc(C(=O)O)c(=O)c2cc(F)c(N3CCNCC3)cc21 [A, reference compound] 225

Look up ED50: O=C(O)c1cn(C2CC2)c2cc(N3CCN(O)CC3)c(F)cc2c1=O [compound 2, hydrate] 17.7

Look up ED50: CCn1cc(C(=O)O)c(=O)c2cc(F)c(N3CCN(O)CC3)cc21 [compound 1] 187

Look up ED50: Cl.O=C(O)c1cn(C2CC2)c2c(F)c(N3CCNCC3)c(F)cc2c1=O [E, reference compound] 5.07

###

# assayExplanation: in vivo
# measurementParameters: mouse, po
Record form. Attribute: LD50 at 336 h. Fill in for each entry.

Look up LD50 at 336 h: O=C(O)c1cn(C2CC2)c2cc(N3CCN(O)CC3)c(F)cc2c1=O [compound 2, hydrate] > 4000 mg/kg

Look up LD50 at 336 h: CCn1cc(C(=O)O)c(=O)c2cc(F)c(N3CCN(O)CC3)c(F)c21.Cl > 4000 mg/kg

Look up LD50 at 336 h: Cl.O=C(O)c1cn(C2CC2)c2c(F)c(N3CCNCC3)c(F)cc2c1=O [E, reference compound] 1410 mg/kg

Look up LD50 at 336 h: CCn1cc(C(=O)O)c(=O)c2cc(F)c(N3CCN(O)CC3)cc21 > 4000 mg/kg

Look up LD50 at 336 h: Cl.O=C(O)c1cn(C2CC2)c2c(F)c(N3CCN(O)CC3)c(F)cc2c1=O > 4000 mg/kg

Look up LD50 at 336 h: Cl.O.O=C(O)c1cn(CCF)c2c(F)c(N3CCN(O)CC3)c(F)cc2c1=O > 4000 mg/kg

Look up LD50 at 336 h: CCn1cc(C(=O)O)c(=O)c2cc(F)c(N3CCNCC3)c(F)c21.Cl [C, reference compound] 1070 mg/kg

FYI, the data here is from patent US4686221A.
